Biological target: Full length wild-type cereblon CRBN (Homo sapiens, UniProt Q96SW2)
Construct: Full length wild-type cereblon CRBN (80.0 nM, 10 μL) was incubated in assay buffer
Sequence (Q96SW2 whole entry): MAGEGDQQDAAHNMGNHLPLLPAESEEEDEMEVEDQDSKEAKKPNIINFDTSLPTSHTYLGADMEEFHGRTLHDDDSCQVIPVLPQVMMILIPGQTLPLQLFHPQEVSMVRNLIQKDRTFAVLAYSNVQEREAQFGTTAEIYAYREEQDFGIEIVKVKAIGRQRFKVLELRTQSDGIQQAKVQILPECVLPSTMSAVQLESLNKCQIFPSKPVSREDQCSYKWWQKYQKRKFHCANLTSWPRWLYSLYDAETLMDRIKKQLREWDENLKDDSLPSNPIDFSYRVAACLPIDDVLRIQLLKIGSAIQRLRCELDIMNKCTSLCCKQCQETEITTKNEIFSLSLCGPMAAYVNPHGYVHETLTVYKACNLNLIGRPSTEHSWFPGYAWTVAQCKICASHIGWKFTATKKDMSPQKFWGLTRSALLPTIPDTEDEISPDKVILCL
Assay: Fluorescence polarization (FP) assay, cereblon binding
Conditions: IC50 value
measured-parameter: IC50

In: Supply IC50 value. Item: O=C1CCC(N2Cc3ccc(COC(=O)Nc4cc(OC(F)(F)F)ccc4F)cc3C2=O)C(=O)N1 (stereo not shown) [Compound 145]
Out: < 1100 nM

---

Listing of entries alongside the reported pIC50.
Molecular target: Full length wild-type cereblon CRBN (Homo sapiens)
Construct: Full length wild-type cereblon CRBN (80.0 nM, 10 μL) was incubated in assay buffer
Assay: Fluorescence polarization (FP) assay, cereblon binding
Details: bounds stated in the text lists b2059-b2061; read-out: IC50 value
pIC50: −log10 of the molar value.

Answered cases to consult:
CC1(c2ccc(NC(=O)OCc3ccc4c(c3)C(=O)N(C3CCC(=O)NC3=O)C4)cn2)CC1 (centres unmarked) [Compound 152]
> 5.96
O=C1CCC(N2Cc3ccc(COC(=O)Nc4ccc(C5COC5)cc4)cc3C2=O)C(=O)N1 (centres unmarked) [Compound 81]
> 5.96
CC(C)(C)c1ccc(NC(=O)OCc2ccc3c(c2)C(=O)N(C2CCC(=O)NC2=O)C3)c(F)c1 (centres unmarked) [Compound 142]
> 5.96
COc1ccccc1CNC(=O)OCc1ccc2c(c1)C(=O)N(C1CCC(=O)NC1=O)C2 (centres unmarked) [Compound 97]
> 5.77
Cc1c(Cl)cc(NC(=O)OCc2ccc3c(c2)C(=O)N(C2CCC(=O)NC2=O)C3)cc1CN1CC2CC1CO2 (centres unmarked) [Compound 13]
> 5.77

In: Supply pIC50 value. Item: COc1cc(NC(=O)OCc2ccc3c(c2)C(=O)N(C2CCC(=O)NC2=O)C3)cnc1C (centres unmarked) [Compound 51]
Out: > 5.77

In: Supply pIC50 value. Item: O=C1CCC(N2Cc3ccc(COC(=O)NC4CCCC4)cc3C2=O)C(=O)N1 (centres unmarked) [Compound 29]
Out: > 5.77

In: Supply pIC50 value. Item: O=C1CCC(N2Cc3ccc(COC(=O)Nc4cccc(OC(F)(F)F)c4)cc3C2=O)C(=O)N1 (centres unmarked) [Compound 3]
Out: > 5.77

---

Target: Full length wild-type cereblon CRBN (Homo sapiens, UniProt Q96SW2)
Construct: Full length wild-type cereblon CRBN (80.0 nM, 10 μL) was incubated in assay buffer
Experiment: Fluorescence polarization (FP) assay, cereblon binding
Conditions: bounds stated in the text lists b2059-b2061; read-out: IC50 value
measured-parameter: IC50

Cc1c(Cl)cc(NC(=O)OCc2ccc3c(c2)C(=O)N(C2CCC(=O)NC2=O)C3)cc1OCC1CCNC1 (centres unmarked)
< 1700 nM
Cc1c(Cl)cc(NC(=O)OCc2ccc3c(c2)C(=O)N(C2CCC(=O)NC2=O)C3)cc1OCC1CCN(C)C1 (centres unmarked)
< 1100 nM
CCc1nscc1NC(=O)OCc1ccc2c(c1)C(=O)N(C1CCC(=O)NC1=O)C2 (centres unmarked)
< 1100 nM

In: Supply IC50 value. Item: O=C1CCC(N2Cc3ccc(COC(=O)Nc4ccc(F)c(Cl)c4)cc3C2=O)C(=O)N1 (centres unmarked)
Out: < 1700 nM

---

Target: GSPT1 (Homo sapiens, UniProt P15170+Q96SW2)
Sequence (P15170 whole entry): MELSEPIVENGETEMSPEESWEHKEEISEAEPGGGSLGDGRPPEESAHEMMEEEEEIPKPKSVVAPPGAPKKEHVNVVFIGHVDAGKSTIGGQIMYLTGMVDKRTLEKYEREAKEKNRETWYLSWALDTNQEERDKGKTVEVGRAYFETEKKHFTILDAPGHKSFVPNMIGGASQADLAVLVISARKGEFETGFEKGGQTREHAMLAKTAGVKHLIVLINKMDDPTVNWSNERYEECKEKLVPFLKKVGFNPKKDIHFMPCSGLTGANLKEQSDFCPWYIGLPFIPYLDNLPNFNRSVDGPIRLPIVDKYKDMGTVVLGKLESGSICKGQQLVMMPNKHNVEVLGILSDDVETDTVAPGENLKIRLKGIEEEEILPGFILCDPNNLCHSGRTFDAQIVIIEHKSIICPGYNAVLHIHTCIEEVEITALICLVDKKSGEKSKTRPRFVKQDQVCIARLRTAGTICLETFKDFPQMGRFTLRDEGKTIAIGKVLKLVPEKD
Sequence (Q96SW2 whole entry): as the sequence (Q96SW2 whole entry) above
Sequence (Q16531 2-1140 partner limits assumed): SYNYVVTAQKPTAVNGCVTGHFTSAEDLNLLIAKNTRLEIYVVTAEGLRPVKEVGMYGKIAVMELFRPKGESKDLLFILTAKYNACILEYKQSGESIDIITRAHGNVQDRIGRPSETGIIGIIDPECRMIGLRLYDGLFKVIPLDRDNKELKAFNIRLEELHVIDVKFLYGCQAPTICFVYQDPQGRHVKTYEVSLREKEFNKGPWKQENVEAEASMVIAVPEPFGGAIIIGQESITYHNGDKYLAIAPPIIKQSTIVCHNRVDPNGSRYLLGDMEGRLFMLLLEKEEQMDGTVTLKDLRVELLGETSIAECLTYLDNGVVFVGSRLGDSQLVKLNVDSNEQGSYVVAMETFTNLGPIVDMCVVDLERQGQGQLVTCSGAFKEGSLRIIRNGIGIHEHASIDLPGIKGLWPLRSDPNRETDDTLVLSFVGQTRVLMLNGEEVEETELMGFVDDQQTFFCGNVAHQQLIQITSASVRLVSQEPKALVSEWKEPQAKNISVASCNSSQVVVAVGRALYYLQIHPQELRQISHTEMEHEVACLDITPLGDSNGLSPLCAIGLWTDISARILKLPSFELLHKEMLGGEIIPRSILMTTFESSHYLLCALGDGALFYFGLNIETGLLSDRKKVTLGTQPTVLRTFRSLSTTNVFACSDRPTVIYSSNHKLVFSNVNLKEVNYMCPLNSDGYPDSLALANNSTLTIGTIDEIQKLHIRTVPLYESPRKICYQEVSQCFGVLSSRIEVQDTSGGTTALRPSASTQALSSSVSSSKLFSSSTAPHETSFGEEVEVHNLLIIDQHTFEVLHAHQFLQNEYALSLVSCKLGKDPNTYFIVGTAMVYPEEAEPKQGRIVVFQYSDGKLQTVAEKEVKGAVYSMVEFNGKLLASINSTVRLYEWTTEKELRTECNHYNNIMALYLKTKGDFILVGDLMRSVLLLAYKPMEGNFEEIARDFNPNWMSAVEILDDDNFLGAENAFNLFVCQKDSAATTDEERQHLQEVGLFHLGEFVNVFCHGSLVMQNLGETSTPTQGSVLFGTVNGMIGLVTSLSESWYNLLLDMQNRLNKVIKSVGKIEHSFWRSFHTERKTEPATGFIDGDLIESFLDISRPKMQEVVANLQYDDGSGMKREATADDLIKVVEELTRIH
Experiment: Immunofluorescence assay for GSPT1 degradation in CAL-51 cells (Example 10)
Assay type: cell-based
Design: host or cells: CAL-51
Conditions: 6 h, read-out: IF Class (GSPT1 degradation, DC50)
Listing of entries alongside the reported DC50.

Answered cases to consult:
O=C1CCC(N2Cc3ccc(COC(=O)Nc4ccc(C5CCC5)cn4)cc3C2=O)C(=O)N1 (stereo not drawn) [Compound 181]
30 to 300 nM
Cc1ccc(NC(=O)OCc2ccc3c(c2)C(=O)N(C2CCC(=O)NC2=O)C3)cc1 (stereo not drawn) [Compound 162]
> 300 nM
CC(C)c1ccc(F)c(NC(=O)OCc2ccc3c(c2)C(=O)N(C2CCC(=O)NC2=O)C3)c1 (stereo not drawn) [Compound 205]
30 to 300 nM
CCc1ccc(F)c(NC(=O)OCc2ccc3c(c2)C(=O)N(C2CCC(=O)NC2=O)C3)c1 (stereo not drawn) [Compound 210]
> 300 nM
Cc1cc(NC(=O)OCc2ccc3c(c2)C(=O)N(C2CCC(=O)NC2=O)C3)ccc1Cl (stereo not drawn) [Compound 165]
< 30 nM
O=C1CCC(N2Cc3ccc(COC(=O)Nc4c(F)ccc(Cl)c4F)cc3C2=O)C(=O)N1 (stereo not drawn) [Compound 178]
> 300 nM
O=C1CCC(N2Cc3ccc(COC(=O)NC4(c5ccccc5)CC4)cc3C2=O)C(=O)N1 (stereo not drawn) [Compound 171]
> 300 nM
Cc1cc(C)nc(NC(=O)OCc2ccc3c(c2)C(=O)N(C2CCC(=O)NC2=O)C3)c1 (stereo not drawn) [Compound 161]
> 300 nM

Continue with the next molecule.
In: Supply DC50 value. Item: Cc1cccc(NC(=O)OCc2ccc3c(c2)C(=O)N(C2CCC(=O)NC2=O)C3)c1 (stereo not drawn) [Compound 160]
Out: > 300 nM

These data points were gathered from patent US20230348418A1.
